Origin of measurements: ChEMBL document CHEMBL1154778

Tested on: Human immunodeficiency virus 1
test: Antiviral activity against HIV1 HXB2 harboring 179E mutant reverse transcriptase infected in human MT4 cells after 5 days by MTT assay
Type: functional, organism-based
settings: Human immunodeficiency virus 1, HXB2, MT4, 120 h
assay_metric: IC50 (nM)
Give bare numbers, in nM.

smiles_data	reported_measurement
Cc1cc(C)cc(Sc2c(Cn3ncnn3)c(C)[nH]c(=O)c2I)c1	0.8
O=C1Nc2ccc(Cl)cc2[C@@](C#CC2CC2)(C(F)(F)F)O1	5.01
Cc1cc(C)cc(Sc2c(Cn3cnnn3)c(C)[nH]c(=O)c2I)c1	0.8

Give one value of IC50 per listed molecule.
1. CCSCc1c(C)[nH]c(=O)c(I)c1Oc1cc(C)cc(C)c1
2. Cc1cc(C)cc(Oc2c(CSCc3ccco3)c(C)[nH]c(=O)c2I)c1
3. Cc1cc(C)cc(Oc2c(Cn3cnnn3)c(C)[nH]c(=O)c2I)c1

10
1
1.4

* * *

Tested on: Human immunodeficiency virus 1
test: Antiviral activity against HIV-1 LAI harboring wild type reverse transcriptase infected in human MT4 cells after 5 days by MTT assay
Assay type: functional, organism-based
settings: Human immunodeficiency virus 1, LAI, MT4, 120 h
IC50 less than 2 nM is YES; IC50 greater than or equal to 2 nM is NO.

// known answers, use as guide
smiles_data	class_name
Cc1cc(C)cc(Sc2c(Cn3cccc3C#N)c(C)[nH]c(=O)c2I)c1	YES
Cc1cc(C)cc(Oc2c(CN3CCSC3)c(C)[nH]c(=O)c2I)c1	NO
Cc1cc(C)cc(Oc2c(CN3CCC(OC(N)=O)CC3)c(C)[nH]c(=O)c2I)c1	NO
COCCOCc1c(C)[nH]c(=O)c(I)c1Oc1cc(C)cc(C)c1	YES

Could you now consider this next molecule?
Please indicate whether the reported IC50 of Cc1cc(C)cc(Sc2c(CSC(C)C)c(C)[nH]c(=O)c2I)c1 is strictly below 2 nM.
NO

* * *

Would you kindly list pIC50 for each of these molecules?
Test system: Human immunodeficiency virus 1
test: Antiviral activity against HIV1 HXB2 harboring 179E mutant reverse transcriptase infected in human MT4 cells after 5 days by MTT assay
Type: functional, organism-based
settings: Human immunodeficiency virus 1, HXB2, MT4, 120 h
Numbers only, as −log10 of the molar value.

Consider the following illustrative entries.
smiles_data	pIC50
Cc1ccnc2c1NC(=O)c1cccnc1N2C1CC1	6.71
Cc1cc(C)cc(Oc2c(Cn3ccnc3)c(C)[nH]c(=O)c2I)c1	8.29
CCc1c(C)[nH]c(=O)c(N(C)C)c1C(=O)c1cc(C)cc(C)c1	8.60

Please look at the following molecule next.
Jot down pIC50 (Human immunodeficiency virus 1) of CCc1c(C)[nH]c(=O)c(I)c1Oc1cc(C)cc(C)c1 .
8.70

* * *

Test system: Human immunodeficiency virus 1
test: Antiviral activity against HIV-1 LAI harboring wild type reverse transcriptase infected in human MT4 cells after 5 days by MTT assay
Type: functional, organism-based
settings: Human immunodeficiency virus 1, LAI, MT4, 120 h
IC50 less than 2 nM is TRUE; IC50 greater than or equal to 2 nM is FALSE.

// known answers, use as guide
molecule	system_name	class_name
Cc1cc(C)cc(Sc2c(CN3CCOC(CC#N)C3)c(C)[nH]c(=O)c2I)c1 (stereo not given)	Human immunodeficiency virus 1	TRUE
COCC1CN(Cc2c(C)[nH]c(=O)c(I)c2Sc2cc(C)cc(C)c2)CCO1 (stereo not given)	Human immunodeficiency virus 1	TRUE
Cc1cc(C)cc(Oc2c(CN(C)Cc3ccco3)c(C)[nH]c(=O)c2I)c1	Human immunodeficiency virus 1	FALSE
Cc1cc(C)cc(Sc2c(Cn3nc(C)nc3C)c(C)[nH]c(=O)c2I)c1	Human immunodeficiency virus 1	FALSE

Could you now consider this next molecule?
Please indicate whether the reported IC50 of Cc1cc(C)cc(Sc2c(CSCC(C)C)c(C)[nH]c(=O)c2I)c1 is strictly below 2 nM.
FALSE

* * *

Tested on: Human immunodeficiency virus 1
test: Antiviral activity against HIV-1 LAI harboring wild type reverse transcriptase infected in human MT4 cells after 5 days by MTT assay
Format: functional, organism-based
settings: Human immunodeficiency virus 1, LAI, MT4, 120 h
Would you kindly list IC50 for each of these compounds?
Give bare numbers, in nM.

Consider the following illustrative entries.
compound	system_name	IC50, nM
Cc1cc(C)cc(Sc2c(CSCc3ccco3)c(C)[nH]c(=O)c2I)c1	Human immunodeficiency virus 1	6.3
Cc1cc(C)cc(Oc2c(CSCc3cccs3)c(C)[nH]c(=O)c2I)c1	Human immunodeficiency virus 1	2.51
Cc1cc(C)cc(Sc2c(Cn3ccnc3)c(C)[nH]c(=O)c2I)c1	Human immunodeficiency virus 1	1.25
Cc1cc(C)cc(Sc2c(Cn3cccc3)c(C)[nH]c(=O)c2I)c1	Human immunodeficiency virus 1	2.51
Cc1cc(C)cc(Oc2c(-n3ccnc3C#N)c(C)[nH]c(=O)c2I)c1	Human immunodeficiency virus 1	6.3
CCSCc1c(C)[nH]c(=O)c(I)c1Sc1cc(C)cc(C)c1	Human immunodeficiency virus 1	3.16
Cc1cc(C)cc(Oc2c(Cn3cccn3)c(C)[nH]c(=O)c2I)c1	Human immunodeficiency virus 1	5.01
Cc1cc(C)cc(Oc2c(CSCC(C)C)c(C)[nH]c(=O)c2I)c1	Human immunodeficiency virus 1	7.94

Give one value of IC50 per listed compound.
1. Cc1cc(C)cc(Sc2c(CN)c(C)[nH]c(=O)c2I)c1
2. Cc1cc(C)cc(Sc2c(CN3CCC(C(N)=O)CC3)c(C)[nH]c(=O)c2I)c1

[19.9, 5.01]

Give one value of IC50 per listed compound.
1. Cc1cc(C)cc(Oc2c(Cn3cnc(C)n3)c(C)[nH]c(=O)c2I)c1
2. Cc1cc(C)cc(Sc2c(CN(C)CCC#N)c(C)[nH]c(=O)c2I)c1
3. Cc1cc(C)cc(Oc2c(CNC(=O)c3cc4ccccc4o3)c(C)[nH]c(=O)c2I)c1
4. Cc1cc(C)cc(Oc2c(CSCc3ccccc3)c(C)[nH]c(=O)c2I)c1
5. Cc1cc(C)cc(Sc2c(Cn3ncnn3)c(C)[nH]c(=O)c2I)c1

[3.98, 2.51, 6.3, 6.3, 0.63]

Give one value of IC50 per listed compound.
1. Cc1cc(C)cc(Oc2c(Cn3cc(Br)cn3)c(C)[nH]c(=O)c2I)c1
2. COC1CCCN(Cc2c(C)[nH]c(=O)c(I)c2Sc2cc(C)cc(C)c2)C1 (configuration not stated)
3. Cc1cc(C)cc(Oc2c(Cn3ccnn3)c(C)[nH]c(=O)c2I)c1
4. Cc1cc(C)cc(Sc2c(CSCCc3cnccn3)c(C)[nH]c(=O)c2I)c1
5. Cc1cc(C)cc(Sc2c(CSCc3cccs3)c(C)[nH]c(=O)c2I)c1
6. Cc1cc(C)cc(Sc2c(CN(C)Cc3ccco3)c(C)[nH]c(=O)c2I)c1

[7.94, 5.01, 2.51, 1.99, 10, 6.3]

* * *

System: Human immunodeficiency virus 1
test: Antiviral activity against HIV1 HXB2 harboring 101E mutant reverse transcriptase infected in human MT4 cells after 5 days by MTT assay
Type: functional, organism-based
settings: Human immunodeficiency virus 1, HXB2, MT4, 120 h
assay_metric: pIC50
Answers are plain numbers, as −log10 of the molar value.

Consider the following illustrative entries.
smiles_data	pIC50
Cc1cc(C)cc(Sc2c(Cn3ncnn3)c(C)[nH]c(=O)c2I)c1	8.48
Cc1cc(C)cc(Oc2c(Cn3ccnc3)c(C)[nH]c(=O)c2I)c1	8.04
CCc1c(C)[nH]c(=O)c(N(C)C)c1Cc1cc(C)cc(C)c1	7.80
CCc1c(C)[nH]c(=O)c(I)c1Oc1cc(C)cc(C)c1	8.20
CCc1c(C)[nH]c(=O)c(N(C)C)c1C(=O)c1cc(C)cc(C)c1	8.10
Cc1cc(C)cc(Oc2c(CSCc3ccco3)c(C)[nH]c(=O)c2I)c1	8.20

Give one value of pIC50 per listed compound.
1. Cc1cc(C)cc(Sc2c(Cn3cnnn3)c(C)[nH]c(=O)c2I)c1
2. CCSCc1c(C)[nH]c(=O)c(I)c1Oc1cc(C)cc(C)c1
3. Cc1cc(C)cc(Oc2c(Cn3cnnn3)c(C)[nH]c(=O)c2I)c1
4. O=C1Nc2ccc(Cl)cc2[C@@](C#CC2CC2)(C(F)(F)F)O1

1: 8.85; 2: 7.70; 3: 8.40; 4: 8.20

* * *

Would you kindly list pIC50 for each of these compounds?
Tested on: Human immunodeficiency virus 1
test: Antiviral activity against HIV-1 LAI harboring wild type reverse transcriptase infected in human MT4 cells after 5 days by MTT assay
Format: functional, organism-based
settings: Human immunodeficiency virus 1, LAI, MT4, 120 h
Answers are plain numbers, as −log10 of the molar value.

Consider the following illustrative entries.
compound	pIC50
Cc1cc(C)cc(Oc2c(Cn3ccnc3)c(C)[nH]c(=O)c2I)c1	8.70
Cc1cc(C)cc(Sc2c(Cn3ccnc3C#N)c(C)[nH]c(=O)c2I)c1	9.00
Cc1cc(C)cc(Sc2c(CN3CCOC(CCO)C3)c(C)[nH]c(=O)c2I)c1 (configuration not stated)	8.80

Give one value of pIC50 per listed compound.
1. Cc1cc(C)cc(Sc2c(CN3CCOCC3)c(C)[nH]c(=O)c2I)c1
2. Cc1cc(C)cc(Oc2c(CSCc3cccc(C#N)c3)c(C)[nH]c(=O)c2I)c1
3. Cc1cc(C)cc(Sc2c(CN3CCOC(CN(C)C)C3)c(C)[nH]c(=O)c2I)c1 (configuration not stated)
4. CCOCc1c(C)[nH]c(=O)c(I)c1Oc1cc(C)cc(C)c1
5. Cc1cc(C)cc(Sc2c(Cn3cnnn3)c(C)[nH]c(=O)c2I)c1
6. CCOC(=O)CC1CN(Cc2c(C)[nH]c(=O)c(I)c2Oc2cc(C)cc(C)c2)CCO1 (configuration not stated)
7. CNC(=O)CSCc1c(C)[nH]c(=O)c(I)c1Oc1cc(C)cc(C)c1

1: 8.90; 2: 8.50; 3: 8.30; 4: 9.20; 5: 8.90; 6: 8.20; 7: 8.80
